This listing pairs binders with measured Kd.
- system: T1, PUF4 RNA-binding domain (Saccharomyces cerevisiae, UniProt P25339 537-888)
- T1 sequence: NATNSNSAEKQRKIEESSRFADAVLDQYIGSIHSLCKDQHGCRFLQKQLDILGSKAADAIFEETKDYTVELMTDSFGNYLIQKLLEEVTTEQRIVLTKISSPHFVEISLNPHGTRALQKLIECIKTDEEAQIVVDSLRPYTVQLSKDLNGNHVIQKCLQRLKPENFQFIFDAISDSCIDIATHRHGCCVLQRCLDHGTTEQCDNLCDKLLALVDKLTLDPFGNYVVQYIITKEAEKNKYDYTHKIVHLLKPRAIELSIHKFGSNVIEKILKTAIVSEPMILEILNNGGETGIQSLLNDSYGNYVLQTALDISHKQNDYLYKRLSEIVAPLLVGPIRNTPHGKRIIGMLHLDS
- run-description: Mg; RNA-MaP; 20 mM Na-HEPES pH 7.4, 30 mM KOAc, 0.75 mM MgCl2, 0.1% Tween-20, 5% glycerol, 0.1 mg/mL BSA, 2 mM DTT; 25 C; 0.0125-409.6 nM protein
- condition: tags: N-His6-TEV cleaved; C-SNAP kept, Cy3B-labelled; label: tethered on chip by stalled RNA polymerase
Reply numerically in nM, unit not repeated.

Record excerpt, results attached:
Ic_S4_P5E.1_K5.1_C5.1_H5.1_A5.1_F5.1_[T8C]_[A10G]_T5.1 (ssRNA) RNA: UUUGACAACUGAUCGUUCUUUCUUGUAUUACUGUUCUUUCUCGAUCAGUUGUCUUU
50.3
UCUCUUAGCAUAUUAUCUCUU (ssRNA) [Ib_S1_P4E.1_K4.1_C4.1_H4.1_[T1A]_[T3C]_A4.1_F4.1_T4.1]
1930
Ic_S4_P5E.1_K5.1_C5.1_H5.1_A5.1_[A7C]_F5.1_[A10T]_T5.1 (ssRNA) RNA: UUUGACAACUGAUCGUUCUUUCUUGUAUUCUUUUUCUUUCUCGAUCAGUUGUCUUU
13.8
Id_ii_S2_P5E.3_K5.2_C5.2_[C-2A]_H5.2_A5.1_F5.1_T5.2_[A12C] (ssRNA) RNA: UUUGAUUAAUAUGAUAUCGUUCUUUCUAUUAUAUUAUUAUCUUCUUUCUCGAUAUCAUAUUAAUCUUU
122

Consider the binder Ic_S4_P4E.1_K4.1_C4.1_H4.1_A4.1_[T5C]_[A6G]_F4.1_[T8C]_[A9G]_T4.1 (ssRNA) RNA: UUUGACAACUGAUCGUUCUUUCUUGUACGUCGUUCUUUCUCGAUCAGUUGUCUUU and give its measured Kd. 395

Requested read-out: Kd. Entry: Id_i_S2_P3E.5_K3.1_C3.3_[T-3C]_[C-2A]_[T-1C]_H3.1_A3.1_F3.1_T3.2 (ssRNA) RNA: UUUGAUUAAUAUGAUAUCGUUCUUUCUCACUGUAUAUAUAUUCUUUCUCGAUAUCAUAUUAAUCUUU 1.09

Quick one: Kd for UCUCUUUGUAACCCGAUCUCUU (ssRNA) [Ic_S1_P5E.1_K5.1_C5.1_H5.1_A5.1_[T5A]_[T6C]_[A7C]_F5.1_[T8C]_[T9G]_T5.1] ? 1950

Could you share which Kd value was measured for UCUCUUUGUACGAUUCUCUU (ssRNA) [Ic_S1_P3E.1_K3.1_C3.1_H3.1_A3.1_[T5C]_[A6G]_F3.1_[T7A]_[A8T]_T3.1] ? 29.9

Fill blank: measured Kd of the binder Ie_S4_P4E.1_K4.1_C4.1_H4.1_[+2CTC]_A4.1_F4.1_T4.1 (ssRNA) RNA: UUUGACAACUGAUCGUUCUUUCUUGCUCUAUAUUAUUCUUUCUCGAUCAGUUGUCUUU is ____. 108

Quick check: Kd of Id_ii_S2_P4E.3_K4.2_C4.2_[C-2A]_[T-1A]_H4.2_A4.1_F4.1_T4.2_[G10C] (ssRNA) RNA: UUUGAUUAAUAUGAUAUCGUUCUUUCUAAUAUAUAUUACUUUCUUUCUCGAUAUCAUAUUAAUCUUU ? 35.9

For the binder Ie_S4_P5E.1_K5.1_C5.1_H5.1_A5.1_F5.1_[+9CCTCT]_T5.1 (ssRNA) RNA: UUUGACAACUGAUCGUUCUUUCUUGUAUUAUUCCUCUAUUCUUUCUCGAUCAGUUGUCUUU , what Kd is on record? 17.8
